binders and their reported koff
# Target under test: T1, human IL-8 (human, UniProt P10145 23-99, limits assumed)
# T1 construct: also called hIL-8; hIL8
# T1 sequence (P10145 23-99 limits assumed): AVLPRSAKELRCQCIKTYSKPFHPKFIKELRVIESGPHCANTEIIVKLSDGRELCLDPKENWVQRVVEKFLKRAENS
# Assay overview: SPR Biacore T200, Protein A/G capture, pH 5.8, 37C;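 further: antibodies captured by Protein A/G amine-coupled onto a CM4 sensor chip, with kinetic parameters derived using Biacore T200 Evaluation Software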
Endpoint: koff (s⁻¹)

binder="H1000/L0442 (antibody, human IgG1, kappa, name in Kabat numbering, V domains shown, L442 = L395 + S31E) VH: QVQLVESGGGLVQPGGSLRLSCAASGFTFSEYYLSWVRQAPGKGLEWVGLIRNKDNHHTPEYSASVKGRFTISRDDSKNSLYLTMSDLKTEDTAVYYCARENHRYDVELAYWGQGTLVTVSS VL: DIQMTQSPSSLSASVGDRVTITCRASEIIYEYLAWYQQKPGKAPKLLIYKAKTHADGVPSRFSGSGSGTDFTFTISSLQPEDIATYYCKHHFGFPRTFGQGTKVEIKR" endpoint=koff quantitative_readout=0.017
binder="H1049/L0442 (antibody, human IgG1, kappa, name in Kabat numbering, V domains shown, L442 = L395 + S31E) VH: QVQLVESGGGLVQPGGSLRLSCAASGFTFDKYYLSWVRQAPGKGLEWVGLIRNKDNYHTPEYSASVKGRFTISRDDSKNSLYLTMSDLKTEDTAVYYCARENHRYDVELAYWGQGTLVTVSS VL: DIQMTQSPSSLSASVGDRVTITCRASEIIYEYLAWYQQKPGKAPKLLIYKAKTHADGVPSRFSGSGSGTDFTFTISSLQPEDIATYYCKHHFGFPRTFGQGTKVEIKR" endpoint=koff quantitative_readout=0.0045
binder="H1009/L0442 (antibody, human IgG1, kappa, name in Kabat numbering, V domains shown, L442 = L395 + S31E) VH: QVQLVESGGGLVQPGGSLRLSCAASGFTFSDYYLSWVRQAPGKGLEWVGLIRNKDNYHTPEYSASVKGRFTISRDDSKNSLYLTMSDLKTEDTAVYYCARENHRYDVELAYWGQGTLVTVSS VL: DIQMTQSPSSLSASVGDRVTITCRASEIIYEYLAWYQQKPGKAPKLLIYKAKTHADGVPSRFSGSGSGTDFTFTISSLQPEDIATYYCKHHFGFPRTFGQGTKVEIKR" endpoint=koff quantitative_readout=0.006

Values from patent US20190169286A1
